system: MDA-MB-435; experiment: NCI tumour cell line growth inhibition, 48 h
Active and inactive are the calls of the source. Cut-off read from the data, not from the text of the source: active = GI50 up to about 1.1 µM and inactive = higher.
Outcomes you can answer with include only these: active, inactive

Lookup: I'd appreciate the recorded outcome for "CC(C)=CCC[C@@H](C)C1=C(Nc2ccccc2F)C(=O)C(C)=C(O)C1=O" from this test.
Found: inactive

Lookup: Hey, what did the test say about "S=C(Cc1ccc2c(c1)Sc1ccccc1O2)N1CCOCC1" ?
Found: inactive

Lookup: Answer briefly: the call reported for Cc1ccc2nc3ccccc3c(C3C4C(=O)N(c5ccc(F)cc5)C(=O)C4ON3C(C(N)=O)c3ccccc3)c2c1 (stereo unspecified) in this assay.
Found: inactive

Lookup: Recorded test call requested for "O=P1(O)c2ccccc2CS(=O)(=O)Cc2ccccc21"
Found: inactive

Lookup: How was "CCN(CC)c1ccc(/C=C2/C[N+](C)(C)C/C(=C/c3ccc(N(CC)CC)cc3)C2=O)cc1" classified in this test?
Found: inactive

Lookup: So what was the verdict on "CCN(CCO)C(=O)C1(c2ccccc2)CCCCC1" in this test?
Found: inactive

Lookup: Please let me know the test result on file for C=C(C)C(=O)OC1C[C@H](COC(C)=O)C2CC=C(CO)C2C2OC(=O)C(=C)[C@H]12 (stereo partly specified) .
Found: inactive

The measured values listed here are drawn from ChEMBL document CHEMBL1201862.
